Below, each of the molecules is paired with its reported pIC50 value.
Test system: Acetyl-CoA carboxylase 1 (Rattus norvegicus, UniProt P11497)
pIC50: −log10 of the molar value.
Property label: pIC50

molecule="CCSC(C)CC1CC(=O)C(/C(CC)=N/OC/C=C/Cl)C(=O)C1 (centres undefined) [clethodim]" property_label=pIC50 observed_measurement=4.40
molecule="CCO/N=C(\\CC)C1C(=O)CC(c2c(C)cc(C)cc2C)CC1=O (centres undefined)" property_label=pIC50 observed_measurement=4.40
molecule="CCC/C(=N\\OCC)C1C(=O)CC(CC(C)SCC)CC1=O (centres undefined)" property_label=pIC50 observed_measurement=4.40
molecule="CC/C(=N\\OC/C=C/Cl)C1C(=O)CC(C2CCOCC2)CC1=O (centres undefined)" property_label=pIC50 observed_measurement=4.40
